Entries and their protein stability index
B1: RIPK4 (parent)
chain: AAWQGHLPIVKLLAKQPGVSVNAQ

Variants of: B1
method.description: protein stability index of a GFP-peptide fusion (GPS, HEK-293T) (PSI 1-6); higher = more stable;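 note: lentivirally expressed fusions sorted by FACS into six bins by GFP to DsRed ratio, PSI derived from sequencing read proportions per bin multiplied by bin number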
condition.notes: c terminus: a fixed tail appended

Answered cases to consult:
| mutation.code | meas.value |
| --- | --- |
| V10I | 1.92 |
| N22I | 2.22 |
| Q24I | 1.61 |
| A1G | 1.34 |

// protein stability index value for V19D : 3.35

// protein stability index value for A1C : 2.18
